tested-on: Human Serum Albumin (HSA) (Homo sapiens, UniProt P02768)
Sequence (P02768 25-609): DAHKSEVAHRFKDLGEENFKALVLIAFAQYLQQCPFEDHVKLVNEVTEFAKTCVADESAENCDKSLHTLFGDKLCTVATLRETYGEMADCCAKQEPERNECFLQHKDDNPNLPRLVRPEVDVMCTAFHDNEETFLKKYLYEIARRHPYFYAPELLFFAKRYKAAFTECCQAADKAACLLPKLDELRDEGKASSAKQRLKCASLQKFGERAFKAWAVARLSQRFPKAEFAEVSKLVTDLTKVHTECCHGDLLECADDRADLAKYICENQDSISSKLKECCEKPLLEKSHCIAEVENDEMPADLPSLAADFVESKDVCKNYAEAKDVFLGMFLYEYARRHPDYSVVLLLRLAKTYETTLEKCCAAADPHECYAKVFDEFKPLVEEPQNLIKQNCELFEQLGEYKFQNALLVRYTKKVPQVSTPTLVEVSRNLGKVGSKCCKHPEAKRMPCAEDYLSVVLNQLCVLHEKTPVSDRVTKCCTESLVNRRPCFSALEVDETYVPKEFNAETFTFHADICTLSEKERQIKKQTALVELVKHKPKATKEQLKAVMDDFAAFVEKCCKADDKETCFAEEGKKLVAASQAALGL
measurement-description: HSA binding by ultrafiltration (Centrifree) and HPLC
details: HSA 45 g/L in phosphate buffer saline, 90 min at 37 °C, mean of three independent measurements
endpoint: Binding to Human Serum Albumin (HSA)
Write the numeric value and follow it with the unit.

Here "ON=Cc1cc[n+](C/C=C\C[n+]2ccc(C=NO)cc2)cc1" was tested on Human Serum Albumin (HSA) (Homo sapiens, UniProt P02768), and its Binding to Human Serum Albumin (HSA) came to 12%

Known value: Human Serum Albumin (HSA) (Homo sapiens, UniProt P02768) Binding to Human Serum Albumin (HSA) of the compound "NC(=O)c1cc[n+](C/C=C/C[n+]2ccc(/C=N/O)cc2)cc1" equals 15%

Readout Binding to Human Serum Albumin (HSA) for "O/N=C/c1cc[n+](CCC[n+]2ccc(/C=N/O)cc2)cc1" , test system Human Serum Albumin (HSA) (Homo sapiens, UniProt P02768), was 6%

Here "NC(=O)c1cc[n+](CCOCC[n+]2ccc(C=NO)cc2)cc1" was tested on Human Serum Albumin (HSA) (Homo sapiens, UniProt P02768), and its Binding to Human Serum Albumin (HSA) came to 4%

Binding to Human Serum Albumin (HSA) of "NC(=O)c1cc[n+](CCC[n+]2ccc(/C=N/O)cc2)cc1" , assay on Human Serum Albumin (HSA) (Homo sapiens, UniProt P02768), is 5%

"O/N=C/c1cc[n+](C/C=C/C[n+]2ccc(/C=N/O)cc2)cc1" tested on Human Serum Albumin (HSA) (Homo sapiens, UniProt P02768) gave Binding to Human Serum Albumin (HSA): 10%

Form field Binding to Human Serum Albumin (HSA) for item "NC(=O)c1cc[n+](COC[n+]2ccccc2/C=N/O)cc1" on Human Serum Albumin (HSA) (Homo sapiens, UniProt P02768): 1%
